- tested.on: beta-catenin/TCF4 engagement (Homo sapiens, UniProt P35222)
- Construct: expressed in transfected cells; host or cells: HEK293
- Sequence (P35222 whole entry): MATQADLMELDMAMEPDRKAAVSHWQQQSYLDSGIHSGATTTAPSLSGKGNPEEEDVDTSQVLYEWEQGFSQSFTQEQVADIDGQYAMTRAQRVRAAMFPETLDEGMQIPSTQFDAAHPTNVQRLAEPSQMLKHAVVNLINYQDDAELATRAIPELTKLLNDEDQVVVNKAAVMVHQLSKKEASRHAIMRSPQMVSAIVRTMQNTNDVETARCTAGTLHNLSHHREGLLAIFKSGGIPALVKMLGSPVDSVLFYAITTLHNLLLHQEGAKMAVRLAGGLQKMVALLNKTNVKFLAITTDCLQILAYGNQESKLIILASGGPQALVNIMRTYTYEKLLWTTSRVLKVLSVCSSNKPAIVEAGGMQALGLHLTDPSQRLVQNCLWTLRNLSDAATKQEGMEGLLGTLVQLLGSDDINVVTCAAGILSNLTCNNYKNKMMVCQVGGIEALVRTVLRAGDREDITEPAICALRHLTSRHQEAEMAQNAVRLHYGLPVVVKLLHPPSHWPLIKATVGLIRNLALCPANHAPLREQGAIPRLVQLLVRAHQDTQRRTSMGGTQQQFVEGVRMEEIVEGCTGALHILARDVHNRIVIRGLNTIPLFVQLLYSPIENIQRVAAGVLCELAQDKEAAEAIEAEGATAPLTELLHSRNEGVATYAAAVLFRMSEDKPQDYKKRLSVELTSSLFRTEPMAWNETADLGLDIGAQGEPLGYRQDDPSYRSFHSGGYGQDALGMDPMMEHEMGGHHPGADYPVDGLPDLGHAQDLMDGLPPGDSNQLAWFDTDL
- assay.summary: Nano-BRET target engagement assay (B-cat-Halo & TCF4-Luc in HEK293 cells)
- Type: cell-based
- condition.summary: read-out: NanoBRET Abs IC50
pIC50: recorded values
Scale: pIC50 equals -log10([C]), with [C] in mol/L.

compound: CC(=O)N1CCC[C@]12CC=CCCCC1(CCCC=CCCCCCC[C@@](C)(C(=O)N[C@@H](Cc3ccccc3Cl)C(=O)N[C@@H](Cc3csc4ccccc34)C(=O)N[C@H](C(N)=O)[C@@H](C)O)NC(=O)[C@H]([C@@H](C)O)NC(=O)[C@H](Cc3ccccc3)NC(=O)[C@H](C)NC(=O)[C@H](C)NC(=O)[C@H](CC(=O)O)NC(=O)[C@H](CC(=O)O)NC1=O)NC(=O)[C@H](CC(C)(C)C)NC(=O)[C@H](CC(=O)O)NC2=O (stereo partly drawn)
observed.measurement: 5.21
//
compound: CC(=O)N1CCC[C@]12CC=CCCCC1(CCCC=CCCCOC(=O)N3CC[C@@](C(=O)N[C@@H](Cc4ccccc4Cl)C(=O)N[C@@H](Cc4csc5ccccc45)C(=O)N[C@@H](C(N)=O)[C@H](C)O)(C3)NC(=O)[C@H]([C@@H](C)O)NC(=O)[C@H](Cc3ccccc3)NC(=O)[C@H](C)NC(=O)[C@H](C)NC(=O)[C@H](CCC(=O)O)NC(=O)[C@H](CC(=O)O)NC1=O)NC(=O)[C@H](CC(C)(C)C)NC(=O)[C@H](CC(=O)O)NC2=O (stereo partly drawn)
observed.measurement: 5.36

Turning now to a further record.
[ask] Find the recorded pIC50 belonging to CC(=O)N1CCC[C@]12CC=CCCCC1(CCCC=CCCCOC(=O)N3CC[C@@](C(=O)N[C@@H](Cc4ccccc4F)C(=O)N[C@@H](Cc4csc5ccccc45)C(=O)N[C@@H](CO)C(N)=O)(C3)NC(=O)[C@H](CO)NC(=O)[C@H](Cc3ccccc3)NC(=O)[C@H](C)NC(=O)[C@H](C)NC(=O)[C@H](CC(=O)O)NC(=O)[C@H](CC(=O)O)NC1=O)NC(=O)[C@H](CC(C)(C)C)NC(=O)[C@H](CC(=O)O)NC2=O (stereo partly drawn) and report it.
[reply] 4.57

###

- assay.summary: CHI Log D procedure
- Assay type: physicochemical
- condition.summary: pH 7.4
assay.metric: CHI Log D
In your answer, state the number alone without any accompanying words.

compound: CC(=O)N1CCC[C@]12CC=CCCCC1(CCCC=CCCCCCC[C@@](C)(C(=O)N[C@@H](Cc3ccccc3)C(=O)N[C@@H](Cc3c[nH]c4ccccc34)C(=O)N[C@@H](CCC(N)=O)C(N)=O)NC(=O)[C@H](C(C)C)NC(=O)[C@H](Cc3cccc(C(F)(F)F)c3)NC(=O)[C@H](C)NC(=O)[C@H](C)NC(=O)[C@H](CC(=O)O)NC(=O)[C@H](CC(=O)O)NC1=O)NC(=O)[C@H](C)NC(=O)[C@H](CC(=O)O)NC2=O (some centres unmarked) [I-237]
CHI Log D: 2.067

Turning now to a further record.
[ask] Find the recorded CHI Log D belonging to CC(=O)N1CCC[C@]12CC=CCCCC1(CCCC=CCCCOC(=O)N3CC[C@@](C(=O)N[C@@H](Cc4ccsc4)C(=O)N[C@@H](Cc4csc5ccccc45)C(=O)N[C@@H](CCC(N)=O)C(N)=O)(C3)NC(=O)[C@H](CC(N)=O)NC(=O)[C@H](Cc3ccccc3)NC(=O)[C@H](C)NC(=O)[C@H](C)NC(=O)[C@H](Cc3cccc(C(=O)O)c3)NC(=O)[C@H](CC(=O)O)NC1=O)NC(=O)[C@H](CC(C)(C)C)NC(=O)[C@H](CC(=O)O)NC2=O (some centres unmarked) [I-976] and report it.
[reply] 1.78
